Hey, just so you know, these numbers are from ChEMBL document CHEMBL1147021.

- tgt: Inosine-5'-monophosphate dehydrogenase 2 (Homo sapiens, UniProt P12268)
- protocol: Inhibition of IMPDH2
pIC50: −log10 of the molar value.
endpoint name: pIC50

Known pIC50 results, listed for orientation:
Enquiry: State its pIC50 for this compound: CN(C(=O)Nc1ccc2c(-c3ccncc3)c[nH]c2c1)c1ccccc1
Return: 7.08

Enquiry: State its pIC50 for this compound: c1ccc(-c2ccc3c(-c4ccncc4)c[nH]c3c2)cc1
Return: 6.34

I: CN(C(=O)Nc1cccc2c(-c3ccncc3)c[nH]c12)c1ccccc1
II: N#Cc1c[nH]c2cc(OCc3ccccc3)ccc12
III: CNOC(=O)Nc1ccc2c(C#N)cn(C)c2c1
IV: Cc1[nH]c2cc(NS(=O)(=O)c3ccccc3)ccc2c1-c1ccncc1
Enquiry: Please put the entries in order of rising pIC50. Please express your ranking as an ordered list of the labels.
Return: II, I, III, IV
(II: 4.14, I: 4.71, III: 5.39, IV: 6.65)
